# credit: patent US20240368668A1

Quick list: logFC.mEQ.over.Luc per entry.
Target: mouse ADAMTS7 (Mus musculus, UniProt Q68SA9, E373Q)
Construct: Full-length mouse Adamts7 1-1857 (Uniprot Q68SA9, WT or E373Q catalytic mutant); expressed in transfected cells; host or cells: Human Coronary Artery Smooth Muscle Cells (HCA-SMC, Lonza), adenovirus 50 MOI
Sequence (Q68SA9 221-1657 E373Q): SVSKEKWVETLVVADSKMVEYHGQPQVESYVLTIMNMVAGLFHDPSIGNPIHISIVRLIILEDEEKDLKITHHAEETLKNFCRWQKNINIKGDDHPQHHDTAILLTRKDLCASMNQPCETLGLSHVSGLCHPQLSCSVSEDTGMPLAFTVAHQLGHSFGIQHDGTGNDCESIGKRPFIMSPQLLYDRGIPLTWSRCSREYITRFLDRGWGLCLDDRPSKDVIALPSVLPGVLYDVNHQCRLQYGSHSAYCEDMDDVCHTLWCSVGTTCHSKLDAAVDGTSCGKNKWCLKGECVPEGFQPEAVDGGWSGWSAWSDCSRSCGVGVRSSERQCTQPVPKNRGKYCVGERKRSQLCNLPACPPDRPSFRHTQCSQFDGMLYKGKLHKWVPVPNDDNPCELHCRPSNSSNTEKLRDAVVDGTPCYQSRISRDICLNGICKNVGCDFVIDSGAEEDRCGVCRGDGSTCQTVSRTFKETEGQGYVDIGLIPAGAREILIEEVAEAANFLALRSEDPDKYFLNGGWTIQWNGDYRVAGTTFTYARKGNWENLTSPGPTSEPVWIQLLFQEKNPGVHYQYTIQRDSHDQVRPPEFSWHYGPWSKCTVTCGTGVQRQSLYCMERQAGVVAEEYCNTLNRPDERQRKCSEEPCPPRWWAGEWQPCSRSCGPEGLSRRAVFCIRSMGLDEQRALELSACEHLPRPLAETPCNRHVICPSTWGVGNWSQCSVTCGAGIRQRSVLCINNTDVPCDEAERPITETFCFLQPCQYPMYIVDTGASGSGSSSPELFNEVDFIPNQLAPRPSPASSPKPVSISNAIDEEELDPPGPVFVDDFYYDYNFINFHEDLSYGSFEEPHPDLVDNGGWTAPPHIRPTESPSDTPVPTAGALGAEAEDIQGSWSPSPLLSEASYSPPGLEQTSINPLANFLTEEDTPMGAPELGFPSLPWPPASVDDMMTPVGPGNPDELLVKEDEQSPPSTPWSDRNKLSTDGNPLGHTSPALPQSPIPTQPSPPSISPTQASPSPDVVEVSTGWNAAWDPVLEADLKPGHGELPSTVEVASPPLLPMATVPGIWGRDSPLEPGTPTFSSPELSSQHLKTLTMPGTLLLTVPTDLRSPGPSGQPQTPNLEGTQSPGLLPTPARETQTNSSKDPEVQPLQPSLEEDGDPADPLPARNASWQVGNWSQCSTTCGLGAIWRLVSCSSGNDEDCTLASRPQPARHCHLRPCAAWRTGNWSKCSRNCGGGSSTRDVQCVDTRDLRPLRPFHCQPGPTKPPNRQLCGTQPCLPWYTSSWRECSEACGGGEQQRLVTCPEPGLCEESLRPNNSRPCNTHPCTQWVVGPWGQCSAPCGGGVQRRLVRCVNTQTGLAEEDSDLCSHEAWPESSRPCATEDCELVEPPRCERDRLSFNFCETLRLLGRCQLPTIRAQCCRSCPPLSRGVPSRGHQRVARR
Experiment: TMT10 TAILS N-terminomics, HUVEC experiment (process replicates, trypsin/AspN digest)
Format: cell-based, human
Conditions: HUVEC TAILS HC; log fold change of N-terminal peptide, Ad-mADAMTS7 EQ over Luc
# respond with the number and nothing more

FN1_1144 (TPGVEYVYTIQVLR; listed as Homo sapiens) :: −0.19
CTGF_173 (TVVGPALAAYR; listed as Homo sapiens) :: −0.45
NID1_360 (FHQQHPQVI; listed as Homo sapiens) :: −0.30
PZP_578 (HAHLQVAAAPQSLCALR; listed as Homo sapiens) :: −0.34
FN1_2113 (FVTHPGY; listed as Homo sapiens) :: −0.62
EFEMP1_124 (AVAGPEMQTGR; listed as Homo sapiens) :: −0.38

Okay, next one:
Form field, logFC.mEQ.over.Luc with mouse ADAMTS7 (Mus musculus, UniProt Q68SA9, E373Q), item FN1_1656 (SSSPVTGYR; listed as Homo sapiens) : −0.08
